B1: NETO1 (parent)
chain: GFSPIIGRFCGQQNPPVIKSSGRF

# Variants of: B1
# test.name: protein stability index of a GFP-peptide fusion (GPS, HEK-293T) (PSI 1-6); higher = more stable;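 further: lentivirally expressed fusions sorted by FACS into six bins by GFP to DsRed ratio, PSI derived from sequencing read proportions per bin multiplied by bin number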
# condition.info: c terminus: a fixed tail appended
Listed below: protein stability index values for each entry.
readout.type: protein stability index

# variant.designation, obs.value
records = [
    ("F9G", 1.97),
    ("G11F", 2.03),
    ("S3R", 2.04),
    ("F9S", 1.98),
    ("P15M", 1.99),
    ("G22C", 1.97),
    ("F24M", 1.97),
    ("I18F", 1.95),
    ("N14K", 2.04),
]
